Molecular target: D(2) dopamine receptor (Bos taurus, UniProt P20288)
Sequence (P20288 whole entry): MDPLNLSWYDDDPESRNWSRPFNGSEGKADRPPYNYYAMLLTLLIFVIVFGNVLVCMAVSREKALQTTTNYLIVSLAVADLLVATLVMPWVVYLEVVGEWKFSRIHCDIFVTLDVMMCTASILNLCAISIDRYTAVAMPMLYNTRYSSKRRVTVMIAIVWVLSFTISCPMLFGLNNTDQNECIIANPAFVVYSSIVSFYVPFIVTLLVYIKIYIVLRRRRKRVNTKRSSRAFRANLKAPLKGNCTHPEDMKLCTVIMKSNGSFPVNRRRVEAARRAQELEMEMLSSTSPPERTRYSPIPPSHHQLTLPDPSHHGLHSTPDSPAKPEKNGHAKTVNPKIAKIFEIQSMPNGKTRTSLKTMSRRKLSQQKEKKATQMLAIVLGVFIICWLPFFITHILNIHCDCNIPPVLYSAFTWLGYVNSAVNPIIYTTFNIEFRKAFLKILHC
Experiment: Inhibitory activity against dopamine receptor D2 in calf corpus striatum using [3H]spiperone as radioligand
Assay type: tissue-based
pIC50: −log10 of the molar value.
Assay Endpoint: pIC50

Take a look at these entries with their results.
1. c1csc(CCNC2CCc3n[nH]cc3C2)c1 (stereo not given)	< 5.00
2. CSCCCNC1CCc2n[nH]cc2C1 (stereo not given)	< 5.00
3. CCCCNC1CCc2[nH]ncc2C1 (stereo not given)	< 5.00
4. CCCNC1CCc2nc(N)sc2C1 (stereo not given)	< 6.00

Return pIC50 (reported value) for this molecule: c1ccc(CCNC2CCc3n[nH]cc3C2)cc1 (stereo not given)
< 5.00

Measured values drawn from ChEMBL document CHEMBL1124655 for this set.
